Test system: U-2932
test: growth inhibition by drug alone (1 - RLU/untreated control) (fraction); higher = stronger inhibition
conditions_used: 1000 nM; time (day): 6; 177Lu-lilotomab satetraxetan 0 ug/ml
outcome_measure: growth inhibition by drug alone

molecule: Cc1ccc(F)c(NC(=O)Nc2ccc(-c3cccc4[nH]nc(N)c34)cc2)c1 [Linifanib (ABT-869)]
assayed_system: U-2932
numeric_value: 0.0811
--
molecule: C[C@@H](N)[C@H]1CC[C@H](C(=O)Nc2ccncc2)CC1
assayed_system: U-2932
numeric_value: -0.0522
--
molecule: Cc1ccc(C(=O)N(CCCN)[C@@H](c2oc3cc(Cl)ccc3c(=O)c2Cc2ccccc2)C(C)C)cc1
assayed_system: U-2932
numeric_value: 0.98
--
molecule: O=C(O[C@@H]1Cc2c(O)cc(O)cc2O[C@@H]1c1cc(O)c(O)c(O)c1)c1cc(O)c(O)c(O)c1 [(-)-Epigallocatechin gallate]
assayed_system: U-2932
numeric_value: -0.12
--
molecule: CCOC(=O)C1=C[C@]2(CC)CCCN3CCc4c(n1c1ccccc41)[C@@H]32 [Vinpocetine (Cavinton)]
assayed_system: U-2932
numeric_value: 0.00297
--
molecule: COc1nc(C)cnc1NS(=O)(=O)c1cccnc1-c1ccc(-c2nnco2)cc1 [Zibotentan (ZD4054)]
assayed_system: U-2932
numeric_value: -0.143
--
molecule: COC(=O)Nc1ccc(-c2nc(N3CCOCC3)c3cnn(C4CCN(C(=O)OC)CC4)c3n2)cc1
assayed_system: U-2932
numeric_value: 0.388
--
molecule: Nc1nc(N)c(N=O)c(OCC2CCCCC2)n1
assayed_system: U-2932
numeric_value: -0.132
--
molecule: O=c1cc(N2CCOCC2)oc2c(-c3cccc4c3sc3ccccc34)cccc12
assayed_system: U-2932
numeric_value: -0.00386
--
molecule: CC(=O)Nc1nc(C)c(-c2ccc(Cl)c(S(=O)(=O)NCCO)c2)s1
assayed_system: U-2932
numeric_value: 0.307
--
molecule: CC1(C)CCC(c2ccc(Cl)cc2)=C(CN2CCN(c3ccc(C(=O)NS(=O)(=O)c4ccc(N[C@H](CCN5CCOCC5)CSc5ccccc5)c(S(=O)(=O)C(F)(F)F)c4)cc3)CC2)C1 [ABT-263 (Navitoclax)]
assayed_system: U-2932
numeric_value: 0.894
--
molecule: CCOC(=O)[C@@H](C)Oc1cccc2c(=O)n(CC(=O)Nc3ccc4c(c3)OCCO4)ccc12
assayed_system: U-2932
numeric_value: -0.15
--
molecule: CCCCc1nc2cc(/C=C/C(=O)NO)ccc2n1CCN(CC)CC [SB939 (Pracinostat)]
assayed_system: U-2932
numeric_value: 0.973
--
molecule: C#CCN(C)CC1=Cc2ccccc2Oc2ccccc21
assayed_system: U-2932
numeric_value: 0.0366
--
molecule: CN(C)CCCN=c1c2ccccc2n(C)c2[nH]c(=O)n(C)c(=O)c12
assayed_system: U-2932
numeric_value: 0.0933
--
molecule: COc1cc2c(cc1OC)CN(CCc1ccc(NC(=O)c3cccc4c(=O)c5cccc(OC)c5[nH]c34)cc1)CC2 [Elacridar]
assayed_system: U-2932
numeric_value: -0.0858
--
molecule: Cc1cnc(NC(=O)Nc2cc(Br)c(C)cc2OC[C@@H]2CNCCO2)cn1
assayed_system: U-2932
numeric_value: 0.233
